// growth lookup, one value per entry
Tested on: RXF 393 renal
Experiment: NCI-60 one-dose screen, 48 h (100 = growth as untreated, 0 = no growth, -100 = all killed)
Conditions: 10 µM unless noted
About 83,000 compounds went through this panel and 20% of them were active in at least one assay; those are over-represented in the sample as a whole. Where a SMILES comes first, the peptide text is derived from it.
observed-property: growth (%)

                                    molecule  quantitative_result
 0               COc1ccc(Nc2ccc3ccccc3c2)cc1                 58.6
 1  CC(=O)OC(C)C(=O)NCC(C)O (configuration not stated)                  113
 2                          Cc1ccc(=O)[nH]n1                  105
 3  CC1CCC(C(C)C)C(NNC(N)=O)C1 (configuration not stated)                  101
 4  Cc1cc(-c2ccc(N=Nc3ccc4c(S(=O)(=O)O)cc(S(=O)(=O)O)c(N)c4c3O)c(C)c2)ccc1N=Nc1ccc2c(S(=O)(=O)O)cc(S(=O)(=O)O)c(N)c2c1O                  101
 5                   CC(C)C(C)(C)c1ccc(O)cc1                  112
 6                        CCCCCCCCCCNC(=O)CI                -86.5
 7  NC(=O)NCCCC(N)C(=O)O (configuration not stated)                  106
 8                Brc1ccc(SSc2ccc(Br)cc2)cc1                 74.6
 9  CC[C@H](CC[C@@H](C)[C@H]1CC[C@H]2[C@@H]3CC=C4C[C@@H](O)CC[C@]4(C)[C@H]3CC[C@]12C)C(C)C                  104
10                          Nc1cc(N)c(N)cc1N                 51.3
11                  c1ccc(-c2nc3ccccc3s2)cc1                  106
12                O=C(/C=C/c1ccccc1)c1ccccc1                  114
13                  CCOC(=O)c1c(C)cc(=O)oc1C                  109
14  NC(Cc1ccccc1)C(=O)NC(Cc1ccccc1)C(=O)O (stereo not drawn) (H-Phe-Phe-OH; configuration not given here)                  105
15             O=C(Cc1ccccc1)c1ccc(O)c(Cl)c1                 41.7
16  CN(C)CC1CCCCCC(CN(C)C)C1=O (configuration not stated)                -5.99
17          O=C1OC(c2ccccc2)=N/C1=C\c1ccccc1                  106
18                Fc1ccc([I+]c2ccc(F)cc2)cc1                  101
19              CC(C)NC(=O)N/C=C(\C#N)C(N)=O                 98.9
20  OC1COC(OCc2ccccc2)C(O)C1O (configuration not stated)                  103
21            O=C1C=C(Nc2ccccc2)c2ccccc2C1=O                 96.7
22                N#CC(C#N)N=Nc1cc(Cl)ccc1Cl                  115
23         Cc1cc(-c2cc(C)c(O)c(C)c2)cc(C)c1O                 63.5
24                  CCCCNc1ccc(Nc2ccccc2)cc1                 83.9
25                 Oc1ccc(Cc2ccccc2Cl)c(O)c1                 83.9
26                  c1ccc(CNCCNCc2ccccc2)cc1                  104
27                             OCCN1CCCCCCC1                  100
28                            CC(C)(O)C(=O)O                  113
29  NN1CCOC(c2ccccc2)C1 (configuration not stated)                  101
30  OCC1OC(O)C(O)C(O)C1O (configuration not stated)                  124
31  O=C1OC(C(O)C(O)CO)C(O)=C1O (configuration not stated)                  116

Values compiled from PubChem BioAssay (NCI).
